# MEASUREMENT NOTES: protein stability index of a GFP-peptide fusion (GPS, HEK-293T) (PSI 1-6); higher = more stable;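 note: 24-mer peptide tiles fused after GFP, lentivirally expressed, FACS-sorted into six equal bins by GFP/DsRed ratio, decoded by Illumina sequencing, PSI is the read-weighted mean bin number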
# CONDITION DESCRIPTION: treatment: DMSO; c terminus: a fixed tail appended
Param threshold (4) applies to protein stability index; output fulfilled when value >= threshold, not fulfilled when value < threshold.

Solved cases (3 shown):
[
  {
    "PRIMARY SEQUENCE": "FEGEGDYEEGMYADWWQEPDAKGD [P3H4]",
    "CLASS NAME": "fulfilled"
  },
  {
    "PRIMARY SEQUENCE": "KEDQFGRTPLMYCVLADRLDCADA [INVS]",
    "CLASS NAME": "not fulfilled"
  },
  {
    "PRIMARY SEQUENCE": "EKEMQKMNPYKIDIGAVYSHRPNQ [PRIM1]",
    "CLASS NAME": "not fulfilled"
  }
]

For this sequence, is measured protein stability index 4 or higher? LRDHADSNIVIMLVGNKSDLRHLR [RAB11A] not fulfilled

Reported protein stability index reaches at least 4 for KLAKVYSYAHGWMFQGWNCGDYFP [CPN1] ? not fulfilled

Has FPGPQEHTQVLPDVRLLPRRLPLA [DYRK1B] a recorded protein stability index greater than or equal to 4? not fulfilled

Dear colleague, could you confirm whether LHEALLEYEAGRAGPGGGAERRRA [ESRRA] has protein stability index at or above 4? fulfilled

* * *

# MEASUREMENT NOTES: protein stability index of a GFP-peptide fusion (GPS, HEK-293T) (PSI 1-6); higher = more stable
# CONDITION DESCRIPTION: treatment: DMSO; c terminus: a fixed tail appended
ENDPOINT NAME: protein stability index
One number for each entry.

[
  {
    "PRIMARY SEQUENCE": "GRDWRHLPTITSELSGAPRCHTVP [PXN]",
    "protein stability index": 3.44
  },
  {
    "PRIMARY SEQUENCE": "FRGQILGFWEEERPFWEEEKTFWK [CCDC70]",
    "protein stability index": 2.25
  },
  {
    "PRIMARY SEQUENCE": "SSCHFARDSSFLISGGFDRTVAIW [WDR88]",
    "protein stability index": 2.42
  },
  {
    "PRIMARY SEQUENCE": "HGPGHETPMTIPEFFRESVNRFGT [ACSBG2]",
    "protein stability index": 3.54
  },
  {
    "PRIMARY SEQUENCE": "MELLCHEVDPVRRAVRDRNLLRDD [CCND2]",
    "protein stability index": 4.28
  }
]

// for each sequence below, give its protein stability index
1. SSQGVATPAITVSNSCPAELPNIK [TFE3]
2. RVDQDKDKDCSLDCAGSPQKPLCA [SMOC2]
3. KEYEKALKYVRGLLQTEPQNNQAK [FIS1]
4. RLLLDSGAQVNMPADSFESPLTLA [ANKRD17]

1: 5; 2: 5.39; 3: 2.86; 4: 3.44

Items follow; give protein stability index for each.
1. PGEEKFENLEGVPSVCSENIHPQV [ZNF263]
2. ITIEPGTSYRLQGLKPNSLYYFRL [PTPRD]
3. PAPERTMAGLSKEPNTLRAPRVRT [VENTX]
4. LAGLTRPDVRPPLGRGLVGGQEEA [SEPHS2]
5. PNAQYWSQFHSVRPQGPQLRQQQH [DNAJC4]

[4.96, 2.63, 4.86, 4.86, 3.62]

Could you report protein stability index for every entry in the following list?
1. DCLQGIRKGLQHGFFDFETFDVDE [CDC14A]
2. KVHTVPKPGKGADLSKPPCRKAKE [ATE1]
3. RFRDFVDALEDSLEEVAVQQTGDD [PBXIP1]

1: 3.33; 2: 4.94; 3: 4.87

* * *

# MEASUREMENT NOTES: protein stability index of a GFP-peptide fusion (GPS, HEK-293T) (PSI 1-6); higher = more stable
# CONDITION DESCRIPTION: treatment: MLN4924 1 uM, 8 h; c terminus: a fixed tail appended
# protein stability index >= 3 gives Satisfied, anything below gives Not satisfied

Previously resolved entries follow.
[
  {
    "PRIMARY SEQUENCE": "NPKDCSENIEVKEGGLYFERRPVA [SPSB2]",
    "CLASS NAME": "Satisfied"
  },
  {
    "PRIMARY SEQUENCE": "SNANYSVKKCIFLLFINHRLVEST [MLH1]",
    "CLASS NAME": "Satisfied"
  },
  {
    "PRIMARY SEQUENCE": "KIEGHQDAVTAALLIPKEDGVITA [WDFY1]",
    "CLASS NAME": "Satisfied"
  },
  {
    "PRIMARY SEQUENCE": "PGFDRGQFHKQIAVMRGQILNLTQ [PI4K2A]",
    "CLASS NAME": "Not satisfied"
  },
  {
    "PRIMARY SEQUENCE": "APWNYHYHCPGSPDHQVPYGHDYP [TRAF3IP2]",
    "CLASS NAME": "Satisfied"
  },
  {
    "PRIMARY SEQUENCE": "IHERTHERERLYPFSECGEAVSDS [ZNF263]",
    "CLASS NAME": "Satisfied"
  }
]

Determine whether measured protein stability index meets or exceeds 3 for QELANIDPTWIESPKTNGHIENGP [SRPK2] Satisfied

Check this sequence for protein stability index at or above 3: RKGLQHGFFDFETFDVDEYEHYER [CDC14A] Satisfied

Could you verify whether the entry LFLGQGIQVSLYCQEWYARRHCPL [SOAT2] shows protein stability index of no less than 3? Not satisfied

* * *

# MEASUREMENT NOTES: protein stability index of a GFP-peptide fusion (GPS, HEK-293T) (PSI 1-6); higher = more stable
# CONDITION DESCRIPTION: treatment: MLN4924 1 uM, 8 h; c terminus: a fixed tail appended
I'd appreciate it if you could supply protein stability index values for the items below.
Give bare numbers.

[
  {
    "PRIMARY SEQUENCE": "TGEDSAFQEPDSPLPPARSPTEPG [WEE1]",
    "RECORDED NUMBER": 5.44
  },
  {
    "PRIMARY SEQUENCE": "KHRIRRVLIVDWDVHHGQGTQFTF [HDAC6]",
    "RECORDED NUMBER": 3.14
  },
  {
    "PRIMARY SEQUENCE": "ERDALEAVFRFWAGGEKGPQAFPM [DNAAF3]",
    "RECORDED NUMBER": 2.58
  },
  {
    "PRIMARY SEQUENCE": "LISKLPYIHFFHTVLKQIAPEYFE [DENND6A]",
    "RECORDED NUMBER": 2.37
  },
  {
    "PRIMARY SEQUENCE": "SRSENVLSRLSLMAMPNGFHEDGP [PSD2]",
    "RECORDED NUMBER": 3.87
  }
]

For every listed record, write down its protein stability index.
1. LATQSLTVETCRALGKLLPRETLC [LRRC45]
2. ATTSASDSLKPEQLDIEEEGRPGA [TFE3]
3. PQKLKEVISLEKLNVGNERYVFEA [GAN]
4. SGTTLISVIVLDINDNAPTFQSSV [PCDHGC5]
5. CAQMLPPNLSPHAPWNYHYHCPGS [TRAF3IP2]
6. RGGMLSASAETLPAGFRVSTLGTL [PPFIA4]
7. GLRKRIATLFFHYIKTPLFNPEVA [IQUB]

[2.48, 5.35, 2.92, 2.64, 2.28, 3.57, 2.19]

Can you give me protein stability index for all of these, one by one?
1. SKNEDRGEEEAESSISSTSNEQLK [ZMYND11]
2. AAVKENQMTPTNLAVCLAPSLFHL [DLC1]
3. DLPPPPADPVLDLPLPPPPPEPLS [APBB1IP]
4. CAGPLEDAVTIPCGHTFCRLCLPA [TRIM15]
5. EKEMQKMNPYKIDIGAVYSHRPNQ [PRIM1]
6. NYGKILVEKNEHCIENNIDLQVNR [R3HDM1]
7. WLISEEEKTQKNQCWKSLFIDTYS [FBXO3]

[5.49, 2.61, 5.33, 2.67, 3.44, 3.75, 2.45]

* * *

# MEASUREMENT NOTES: protein stability index of a GFP-peptide fusion (GPS, HEK-293T) (PSI 1-6); higher = more stable
# CONDITION DESCRIPTION: treatment: MLN4924 1 uM, 8 h; c terminus: a fixed tail appended
ENDPOINT NAME: protein stability index
Numbers only.

In the examples that follow, each entry is paired with its recorded protein stability index.
[
  {
    "PRIMARY SEQUENCE": "AALELLPRELFPPLFMAAFDGRHS [PRAME]",
    "RECORDED NUMBER": 2.4
  },
  {
    "PRIMARY SEQUENCE": "PNAQYWSQFHSVRPQGPQLRQQQH [DNAJC4]",
    "RECORDED NUMBER": 3.76
  },
  {
    "PRIMARY SEQUENCE": "AGSFSRRLIKRFSFKSKPKANGNP [C2CD2L]",
    "RECORDED NUMBER": 3.55
  },
  {
    "PRIMARY SEQUENCE": "SIFYDLPQGSGFCLGQLNLEQRSE [SMAD6]",
    "RECORDED NUMBER": 3.45
  },
  {
    "PRIMARY SEQUENCE": "ECEEGELSFYDAERHCHLYTFHAR [TRIM35]",
    "RECORDED NUMBER": 3.21
  },
  {
    "PRIMARY SEQUENCE": "GEELADVGGVLRGLNHSLSYDVAL [SCARA5]",
    "RECORDED NUMBER": 3.41
  },
  {
    "PRIMARY SEQUENCE": "SFPATLETQEQDVDLVQKYLEKYY [MMP1]",
    "RECORDED NUMBER": 4.09
  },
  {
    "PRIMARY SEQUENCE": "WTTEQQQRFHEICSNLVKTRRRAV [ARL6IP1]",
    "RECORDED NUMBER": 3.07
  }
]

Quick batch: protein stability index for everything below.
1. YPEDSSWAAKAPGASSREEPPEEP [SPDEF]
2. CDLADRELVVIIGWAKHIPGFSTL [ESRRG]
3. DIGAVYSHRPNQHNTVKLGAFQAQ [PRIM1]

[4.64, 3.05, 3.19]

Each sequence below has a recorded value; state its protein stability index.
1. EEAEWESINVLLMMHGLKPLSLVK [CEP70]
2. EENRLREELRQEWEAKQEKIKSEE [FAM50A]
3. NYEKLSRGLRYYYDKNIIHKTAGK [ETS1]

1. 2.31
2. 5.52
3. 2.89
